Parameter: inhibition. Scope: all listed entries.
- assay_system: Mannose-6-phosphate isomerase (Homo sapiens) (UniProt P34949)
- Sequence (P34949 whole entry, looked up): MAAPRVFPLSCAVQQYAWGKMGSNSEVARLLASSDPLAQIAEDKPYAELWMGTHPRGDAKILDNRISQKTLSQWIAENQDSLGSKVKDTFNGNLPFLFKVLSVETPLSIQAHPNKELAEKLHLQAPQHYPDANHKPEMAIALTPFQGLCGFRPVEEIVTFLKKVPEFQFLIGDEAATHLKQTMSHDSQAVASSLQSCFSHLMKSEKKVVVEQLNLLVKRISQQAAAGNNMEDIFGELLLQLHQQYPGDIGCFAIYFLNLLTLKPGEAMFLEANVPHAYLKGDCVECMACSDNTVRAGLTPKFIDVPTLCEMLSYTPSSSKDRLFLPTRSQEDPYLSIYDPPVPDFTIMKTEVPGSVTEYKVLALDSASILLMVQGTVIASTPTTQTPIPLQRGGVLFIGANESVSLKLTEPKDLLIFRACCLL
- procedure_details: MPI inhibition at elevated mannose 6-phosphate – biochemical, fluorescence intensity, high mannose 6-phosphate, primary screen (AID 1220)
- condition_parameters: recombinant PMI enzyme, coupled fluorescence intensity; at 20 µM; active compounds read high
In all, about 190,000 compounds went through this assay and about 1,300 (0.68%) were called active. The sample holds actives, similar compounds and a random draw of the others, so the mix is not that of the screen.
Respond numerically; units are % and should not be typed.

Some entries whose results are on file:
> print(dat)
                                   compound                              assay.system  unit.spec  result.number
1  CCOC(=O)c1cc(-c2ccc(C)cc2)n(CCC(=O)NCCN(C)C)c1C  Mannose-6-phosphate isomerase (Homo sapiens) (UniProt P34949)          %            5.6
2  Cc1ccc(S(=O)(=O)/N=C2/C=C(Sc3ncn[nH]3)C(=O)c3ccccc32)cc1  Mannose-6-phosphate isomerase (Homo sapiens) (UniProt P34949)          %           88.3
3               O=c1cnnc(Nc2cccc(F)c2)[nH]1  Mannose-6-phosphate isomerase (Homo sapiens) (UniProt P34949)          %          -14.5
4  CN(Cc1ccccc1)c1ccc(S(=O)(=O)N2CCC(C(=O)O)CC2)cc1[N+](=O)[O-]  Mannose-6-phosphate isomerase (Homo sapiens) (UniProt P34949)          %           10.6
5  Cc1ccccc1C(=O)NC(=S)Nc1ccc(S(=O)(=O)N2CCOCC2)cc1  Mannose-6-phosphate isomerase (Homo sapiens) (UniProt P34949)          %            3.6

Notebook: `O=c1c2[nH]c3ccccc3c2ncn1Cc1ccccn1` , inhibition read as 1.8

Form field inhibition, entry `CCNC(=S)N1CCN(C(c2ccccc2)c2ccccc2)CC1` : 18.7
